test.description: PK parameter test in SD rats
Format: in vivo, Sprague-Dawley rats
condition.parameters: Sprague-Dawley, rat; male SD rats, intravenous injection 3 mg/kg, plasma; read-out: AUC(iv)
observable: AUC (ng·h/mL)

CCOc1nc([C@@H](CS(C)(=O)=O)N2C(=O)c3c(F)ccc(NC(C)=O)c3C2=O)ccc1OC 1340
CCOc1nc([C@@H](CS(C)(=O)=O)N2C(=O)c3cc(F)cc(NC(C)=O)c3C2=O)ccc1OC 945
CCOc1nc([C@@H](CS(C)(=O)=O)N2C(=O)c3cccc(NC(C)=O)c3C2=O)ccc1OC 1330

---

tested.on: PDE4A1A (Homo sapiens, UniProt P27815)
Construct: purchased BPS 60040
Sequence (P27815 1-647 isoform P27815-4): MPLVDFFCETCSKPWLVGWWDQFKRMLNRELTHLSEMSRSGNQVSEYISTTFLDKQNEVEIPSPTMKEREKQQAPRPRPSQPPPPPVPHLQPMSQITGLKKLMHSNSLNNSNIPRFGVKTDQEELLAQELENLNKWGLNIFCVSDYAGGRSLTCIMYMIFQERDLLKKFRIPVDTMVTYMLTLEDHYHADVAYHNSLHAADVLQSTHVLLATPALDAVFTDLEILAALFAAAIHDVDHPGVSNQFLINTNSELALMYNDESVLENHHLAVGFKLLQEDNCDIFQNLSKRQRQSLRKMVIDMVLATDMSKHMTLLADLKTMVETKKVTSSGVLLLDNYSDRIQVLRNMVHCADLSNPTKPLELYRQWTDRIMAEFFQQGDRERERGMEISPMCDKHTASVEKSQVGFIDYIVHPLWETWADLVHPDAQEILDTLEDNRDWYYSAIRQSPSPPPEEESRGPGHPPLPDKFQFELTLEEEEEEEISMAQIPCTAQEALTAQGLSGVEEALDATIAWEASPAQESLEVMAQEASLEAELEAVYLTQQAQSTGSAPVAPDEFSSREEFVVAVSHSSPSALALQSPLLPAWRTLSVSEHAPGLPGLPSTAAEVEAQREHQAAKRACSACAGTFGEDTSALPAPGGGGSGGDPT
test.description: PDE4 activity inhibition assay, PDE4A1A
Assay type: biochemical
condition.parameters: FAM-cAMP substrate, 30 minutes at room temperature
observable: IC50 (nM)

I. [2H]C([2H])([2H])Oc1ccc([C@H](CS(C)(=O)=O)N2C(=O)c3c(F)ccc(NC(C)=O)c3C2=O)nc1OCC
II. [2H]C([2H])([2H])Oc1ccc([C@H](CS(C)(=O)=O)N2C(=O)c3cc(F)cc(NC(C)=O)c3C2=O)cc1OCC
III. CCOc1cc([C@@H](CS(C)(=O)=O)N2C(=O)c3c(C#N)ccc(NC(C)=O)c3C2=O)ccc1OC
**Query** Arrange by IC50, high to low. Returns: the labels listed in the requested order.
**Result** II, I, III
